Target: BTK (Homo sapiens, UniProt Q06187)
Construct: purchased Reaction Biology Corporation
Sequence (Q06187 whole entry): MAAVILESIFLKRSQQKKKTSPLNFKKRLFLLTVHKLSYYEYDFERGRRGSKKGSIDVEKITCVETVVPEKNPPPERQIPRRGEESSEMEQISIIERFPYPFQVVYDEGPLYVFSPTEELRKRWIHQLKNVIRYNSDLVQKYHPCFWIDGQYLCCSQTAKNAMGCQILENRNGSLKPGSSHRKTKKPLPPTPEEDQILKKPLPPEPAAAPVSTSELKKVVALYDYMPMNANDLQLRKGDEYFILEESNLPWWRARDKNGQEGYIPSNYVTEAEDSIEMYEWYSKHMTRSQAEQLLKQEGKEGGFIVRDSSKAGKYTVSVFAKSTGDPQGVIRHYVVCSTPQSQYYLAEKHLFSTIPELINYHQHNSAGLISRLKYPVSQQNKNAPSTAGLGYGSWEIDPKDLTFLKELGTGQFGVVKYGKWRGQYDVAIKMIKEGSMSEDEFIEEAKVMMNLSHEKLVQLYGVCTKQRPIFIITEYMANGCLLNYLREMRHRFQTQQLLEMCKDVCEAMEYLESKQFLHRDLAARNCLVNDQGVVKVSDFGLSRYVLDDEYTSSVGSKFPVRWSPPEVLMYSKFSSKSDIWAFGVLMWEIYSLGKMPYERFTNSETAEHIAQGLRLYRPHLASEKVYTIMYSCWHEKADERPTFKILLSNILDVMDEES
Assay: BTK kinase profiling, HotSpot radiometric assay (Reaction Biology)
Type: biochemical
metric.name: IC50 (nM)
The answer is to be given in nM; state only the numeric part.

Incoming: Any idea what IC50 came out for `C=CC(=O)N(CCn1nc(-c2cc(O)cc(F)c2)c2c(N)ncnc21)Cc1ccccc1F` on BTK (Homo sapiens, UniProt Q06187)?
Outgoing: 7.4

Incoming: Any idea what IC50 came out for `C=CC(=O)N(CCn1nc(-c2cc(O)cc(F)c2)c2c(N)ncnc21)Cc1ccc(F)cc1` on BTK (Homo sapiens, UniProt Q06187)?
Outgoing: 3

Incoming: Any idea what IC50 came out for `Nc1ncnc2c1c(-c1cc(O)cc(F)c1)nn2CCNc1ccccc1` on BTK (Homo sapiens, UniProt Q06187)?
Outgoing: 167

Incoming: Any idea what IC50 came out for `C=CC(=O)N(CCn1nc(-c2cc(O)cc(F)c2)c2c(N)ncnc21)c1ccccc1` on BTK (Homo sapiens, UniProt Q06187)?
Outgoing: 3.9
